Target: SIK2 (Homo sapiens)
Sequence (Q9H0K1 whole entry, species assumed): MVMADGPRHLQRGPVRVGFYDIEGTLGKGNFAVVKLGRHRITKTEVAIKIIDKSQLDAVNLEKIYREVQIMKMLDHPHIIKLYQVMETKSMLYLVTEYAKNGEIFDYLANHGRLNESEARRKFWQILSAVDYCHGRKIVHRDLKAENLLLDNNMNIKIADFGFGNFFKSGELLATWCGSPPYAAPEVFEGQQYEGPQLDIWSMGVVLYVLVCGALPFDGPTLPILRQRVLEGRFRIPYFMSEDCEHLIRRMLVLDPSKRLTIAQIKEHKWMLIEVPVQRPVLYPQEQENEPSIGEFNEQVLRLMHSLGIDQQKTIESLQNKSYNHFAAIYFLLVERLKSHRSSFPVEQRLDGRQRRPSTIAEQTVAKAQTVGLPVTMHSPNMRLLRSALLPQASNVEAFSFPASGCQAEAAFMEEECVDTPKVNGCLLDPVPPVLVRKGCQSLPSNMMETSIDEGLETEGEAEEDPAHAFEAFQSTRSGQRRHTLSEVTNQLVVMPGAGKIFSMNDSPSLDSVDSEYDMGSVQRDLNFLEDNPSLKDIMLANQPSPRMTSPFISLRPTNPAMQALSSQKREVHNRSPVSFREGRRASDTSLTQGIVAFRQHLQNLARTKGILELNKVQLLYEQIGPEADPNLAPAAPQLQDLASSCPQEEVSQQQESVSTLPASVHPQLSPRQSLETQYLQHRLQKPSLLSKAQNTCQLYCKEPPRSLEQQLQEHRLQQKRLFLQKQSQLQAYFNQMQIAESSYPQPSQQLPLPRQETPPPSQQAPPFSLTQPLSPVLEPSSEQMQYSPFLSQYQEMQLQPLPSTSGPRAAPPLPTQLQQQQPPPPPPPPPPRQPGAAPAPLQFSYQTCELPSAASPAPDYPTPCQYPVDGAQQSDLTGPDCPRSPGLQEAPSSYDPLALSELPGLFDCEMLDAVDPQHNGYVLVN
Experiment: SIK2 Enzymatic Assay High Version 2 (High ATP)
Type: biochemical
Conditions: enzyme 6 nM, 6 mM ATP and 400 μM HDAC5tide (each 2× final concentration); 30 minutes pre-incubation, 2 hours; ADP-Glo Max luminescence; read-out: SIK2 high ATP IC50 (μM) (Test Example 2)
observation-type: IC50 (µM)

| compound | target | observation-type | recorded-number |
| --- | --- | --- | --- |
| Cc1cc(-c2ccn3nc(Nc4cc(C)nc(C)n4)cc3c2)c(OC[C@H](O)C2CC2)cn1 [Example 558] | SIK2 (Homo sapiens) | IC50 | 0.0695 |
| CCc1nc(C)cc(Nc2cc3cc(-c4cc(C)ncc4O[C@H]4CC[C@H](O)CC4)ccn3n2)n1 [Example 224] | SIK2 (Homo sapiens) | IC50 | 0.00127 |
| Cc1cc(Nc2cc3cc(-c4cc(OCCF)ncc4OCC(C)(C)C#N)ccn3n2)nc(C)n1 [Example 673] | SIK2 (Homo sapiens) | IC50 | 0.00229 |
| Cc1cc(Nc2cc3cc(-c4cc(OCCO)ncc4OCC(C)(C)C#N)ccn3n2)nc(C)n1 [Example 678] | SIK2 (Homo sapiens) | IC50 | 0.0443 |
| Cc1cc(-c2ccn3nc(Nc4cc(C)nc(C)n4)cc3c2)c(O[C@H]2C[C@@H](N)C2)cn1 [Example 314] | SIK2 (Homo sapiens) | IC50 | 0.0129 |
| CC(C)(C#N)COc1cnc(OC(F)F)cc1-c1ccn2nc(Nc3ccc(C(C)(C)O)nn3)cc2c1 [Example 712] | SIK2 (Homo sapiens) | IC50 | 0.00411 |
| Cc1cc(-c2ccn3nc(Nc4cc(C)c(=O)n(C)n4)cc3c2)c(OCC(C)(C)O)cn1 [Example 209] | SIK2 (Homo sapiens) | IC50 | 0.0171 |
| CC(C)(C#N)COc1cnc(Cl)cc1-c1ccn2nc(NC(=O)C3CC3)cc2c1 [Example 666] | SIK2 (Homo sapiens) | IC50 | 0.0555 |
